Origin of values: patent US20190367631A1

target.of.assay: T1, human MSR1 extracellular domain expressed with a N-terminal nonahistidine tag (His9-hMSR1); R&D Systems, Cat … (human, UniProt P21757 77-451)
T1 construct: extracellular domain; Bought reagent; also called His-hMSR1; 9xHis-hMSR1
T1 sequence: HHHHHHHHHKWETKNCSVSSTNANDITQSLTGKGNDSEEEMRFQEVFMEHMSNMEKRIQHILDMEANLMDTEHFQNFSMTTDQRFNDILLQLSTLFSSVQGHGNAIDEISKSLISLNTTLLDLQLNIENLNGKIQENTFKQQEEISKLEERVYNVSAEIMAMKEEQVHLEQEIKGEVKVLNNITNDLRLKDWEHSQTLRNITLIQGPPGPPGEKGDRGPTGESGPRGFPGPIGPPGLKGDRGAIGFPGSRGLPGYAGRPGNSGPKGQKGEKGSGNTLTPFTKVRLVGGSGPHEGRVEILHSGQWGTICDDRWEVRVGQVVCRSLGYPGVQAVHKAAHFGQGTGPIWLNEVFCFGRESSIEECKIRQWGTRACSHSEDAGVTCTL
procedure.text: SPR Biacore T200, 25 C, antibody captured by anti-human Fc, His9-hMSR1 injected;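 further: running buffer HBS-ET pH 7.4, rates from sensorgrams fitted to a 1:1 model including mass transport limitation, KD and half-life derived from the kinetic constants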
measured.endpoint: pKd
Remember, pKd is on a log scale: it is -log10 of the molar concentration.

Prompt: Sample H1H27739P-N297Q (antibody, human IgG1, V domains shown, human IgG1 Fc with N297Q (EU)) VH: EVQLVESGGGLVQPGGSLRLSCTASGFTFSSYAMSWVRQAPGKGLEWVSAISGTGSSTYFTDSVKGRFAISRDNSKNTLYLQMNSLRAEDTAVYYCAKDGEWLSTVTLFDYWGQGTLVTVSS VL: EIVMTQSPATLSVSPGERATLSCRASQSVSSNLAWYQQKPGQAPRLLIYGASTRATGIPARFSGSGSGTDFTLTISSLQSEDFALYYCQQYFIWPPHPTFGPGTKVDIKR — what was its pKd?
Completion: 8.33

Prompt: Queued: H1H27729P-N297Q-LP1 (antibody, human IgG1, V domains shown, LXR agonist linker-payload LP1 clicked to azido-PEG3-amine on Q295 and Q297 (EU) of the heavy chain constant region, antibody-drug conjugate; human IgG1 Fc with N297Q (EU); also called H1H27729P-LP1) VH: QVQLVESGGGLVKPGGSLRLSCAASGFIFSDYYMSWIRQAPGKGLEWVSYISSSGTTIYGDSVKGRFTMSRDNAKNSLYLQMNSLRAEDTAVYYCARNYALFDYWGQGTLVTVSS VL: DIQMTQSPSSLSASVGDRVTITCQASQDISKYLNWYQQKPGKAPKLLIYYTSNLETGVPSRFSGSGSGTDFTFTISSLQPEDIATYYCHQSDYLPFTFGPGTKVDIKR
Completion: 7.88

Prompt: Consider next the binder H1H27739P-N297Q-LP1 (antibody, human IgG1, V domains shown, LXR agonist linker-payload LP1 clicked to azido-PEG3-amine on Q295 and Q297 (EU) of the heavy chain constant region, antibody-drug conjugate; human IgG1 Fc with N297Q (EU); also called H1H27739P-LP1) VH: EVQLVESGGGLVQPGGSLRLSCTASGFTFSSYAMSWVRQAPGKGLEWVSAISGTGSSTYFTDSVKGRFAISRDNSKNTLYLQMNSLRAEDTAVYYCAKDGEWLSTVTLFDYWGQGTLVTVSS VL: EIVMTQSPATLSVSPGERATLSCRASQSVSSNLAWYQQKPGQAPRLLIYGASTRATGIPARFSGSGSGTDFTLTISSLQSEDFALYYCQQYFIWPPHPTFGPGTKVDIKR in the same way.
Completion: 8.09
